test system: LG0703-F498-PDC complex spheroid growth; experiment: Anticancer human tumor LG0703-F498-PDC patient-derived lung adenocarcinoma cell line growth inhibition [AhR]; conditions: second compound 10 µM; first compound 10 µM; hits give low values
Measured viability, T/C, listed per entry.
Your answer should be a plain number; it is taken to be in %.

// below: answered molecules
Form field viability, T/C, entry CC1COCCN1c1cc(C2(S(C)(=N)=O)CC2)nc(-c2ccnc3[nH]ccc23)n1 (stereo not given) + Cc1ccccc1N=Nc1ccc(NC(=O)c2ccnn2C)c(C)c1 : 65.2

Form field viability, T/C, entry COc1ccc([C@@H](O)c2cc(-c3ncnc4cc(N5CCOCC5)ccc34)c(F)cc2Cl)nn1 + Cc1cncc(-c2nc(NCCc3c[nH]c4ccccc34)c3ncn(C(C)C)c3n2)c1 : 1.67

Form field viability, T/C, entry O=C(C=Cc1cccc(S(=O)(=O)Nc2ccccc2)c1)NO + Cc1ccccc1N=Nc1ccc(NC(=O)c2ccnn2C)c(C)c1 : 6.34

Form field viability, T/C, entry Nc1ccn(C2OC(CO)C(O)C2(F)F)c(=O)n1 (stereo not given) + Cc1cncc(-c2nc(NCCc3c[nH]c4ccccc34)c3ncn(C(C)C)c3n2)c1 : 1.93

# input for lookup
Form field viability, T/C, entry O=C(C=Cc1cccc(S(=O)(=O)Nc2ccccc2)c1)NO + Cc1cncc(-c2nc(NCCc3c[nH]c4ccccc34)c3ncn(C(C)C)c3n2)c1 : 1.55

* * *

Measured viability, T/C, listed per entry.
test system: LG0703-F498-PDC complex spheroid growth; experiment: Anticancer human tumor LG0703-F498-PDC cell line growth inhibition [AhR]; conditions: second compound 10 µM; first compound 10 µM; hits give low values;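 further: luminescence taken as a proxy for viable cell amount; percent of DMSO vehicle control where 100% means growth equal to vehicle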

// below: answered compounds
Record for Nc1ccccc1NC(=O)c1ccc(CNC(=O)OCc2cccnc2)cc1 + Cc1cncc(-c2nc(NCCc3c[nH]c4ccccc34)c3ncn(C(C)C)c3n2)c1 under target or system LG0703-F498-PDC complex spheroid growth: viability, T/C reported as 0.17%

Record for O=C(C=Cc1cccc(S(=O)(=O)Nc2ccccc2)c1)NO + CC(CO)NC(=O)c1cc(-c2ccc(Cl)cc2)nn(-c2cnn(C)c2)c1=O under target or system LG0703-F498-PDC complex spheroid growth: viability, T/C reported as 1.23%

Record for COc1ccc([C@@H](O)c2cc(-c3ncnc4cc(N5CCOCC5)ccc34)c(F)cc2Cl)nn1 + CC(CO)NC(=O)c1cc(-c2ccc(Cl)cc2)nn(-c2cnn(C)c2)c1=O under target or system LG0703-F498-PDC complex spheroid growth: viability, T/C reported as 33.4%

Record for CC(C)c1c(-c2ccccc2)nc2c(C#N)c[nH]n2c1=O + Cc1ccccc1N=Nc1ccc(NC(=O)c2ccnn2C)c(C)c1 under target or system LG0703-F498-PDC complex spheroid growth: viability, T/C reported as 79.3%

Record for COc1cccc2c1C(=O)c1c(O)c3c(c(O)c1C2=O)CC(O)(C(=O)CO)CC3OC1CC(N)C(O)C(C)O1 (stereo unspecified) + Cc1ccccc1N=Nc1ccc(NC(=O)c2ccnn2C)c(C)c1 under target or system LG0703-F498-PDC complex spheroid growth: viability, T/C reported as 2.16%

# input for lookup
Record for CC(C)c1c(-c2ccccc2)nc2c(C#N)c[nH]n2c1=O + Cc1cncc(-c2nc(NCCc3c[nH]c4ccccc34)c3ncn(C(C)C)c3n2)c1 under target or system LG0703-F498-PDC complex spheroid growth: viability, T/C reported as 1.89%

* * *

tested on: LG0703-F498-PDC complex spheroid growth; assay: Anticancer human tumor LG0703-F498-PDC cell line growth inhibition [AhR]; settings: second compound 0.316 µM; first compound 0.00949 µM; active = viability on the fitted dose curve at most 10% of control; inactive = the rest;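 further: luminescence taken as a proxy for viable cell amount; percent of DMSO vehicle control where 100% means growth equal to vehicle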
The reply should name one outcome from active, inactive

Dear all, I need the recorded test outcome for CCN(c1cc(-c2ccc(CN3CCOCC3)cc2)cc(C(=O)NCc2c(C)cc(C)[nH]c2=O)c1C)C1CCOCC1 + Cc1ccccc1N=Nc1ccc(NC(=O)c2ccnn2C)c(C)c1 , thank you.
inactive

Dear all, I need the recorded test outcome for Nc1ncn(C2CC(O)C(CO)S2)c(=O)n1 (stereo unspecified) + Cc1cncc(-c2nc(NCCc3c[nH]c4ccccc34)c3ncn(C(C)C)c3n2)c1 , thank you.
inactive

Dear all, I need the recorded test outcome for CCc1c2c(nc3ccc(O)cc13)-c1cc3c(c(=O)n1C2)COC(=O)[C@]3(O)CC + Cc1ccccc1N=Nc1ccc(NC(=O)c2ccnn2C)c(C)c1 , thank you.
inactive

Dear all, I need the recorded test outcome for CC(C)CC(NC(=O)C(Cc1ccccc1)NC(=O)c1cnccn1)B(O)O (stereo unspecified) + CC(CO)NC(=O)c1cc(-c2ccc(Cl)cc2)nn(-c2cnn(C)c2)c1=O , thank you.
active

Dear all, I need the recorded test outcome for CCc1c2c(nc3ccc(O)cc13)-c1cc3c(c(=O)n1C2)COC(=O)[C@]3(O)CC + CC(CO)NC(=O)c1cc(-c2ccc(Cl)cc2)nn(-c2cnn(C)c2)c1=O , thank you.
inactive

Now take the following molecule into account.
Dear all, I need the recorded test outcome for O=C(C=Cn1cnc(-c2cc(C(F)(F)F)cc(C(F)(F)F)c2)n1)NNc1cnccn1 + Cc1ccccc1N=Nc1ccc(NC(=O)c2ccnn2C)c(C)c1 , thank you.
inactive

* * *

tested on: LG0703-F498-PDC complex spheroid growth; assay: Anticancer human tumor LG0703-F498-PDC cell line growth inhibition [AhR]; settings: second compound 0.316 µM; first compound 0.00949 µM; active = viability on the fitted dose curve at most 10% of control; inactive = the rest;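 further: luminescence taken as a proxy for viable cell amount; percent of DMSO vehicle control where 100% means growth equal to vehicle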
The reply should name one outcome from True (active), False (inactive)

These recorded examples may help you get a feel for the data.
Dear all, I need the recorded test outcome for Nc1ncn(C2CC(O)C(CO)S2)c(=O)n1 (stereo unspecified) + Cc1ccccc1N=Nc1ccc(NC(=O)c2ccnn2C)c(C)c1 , thank you.
False

Dear all, I need the recorded test outcome for O=C(C=Cn1cnc(-c2cc(C(F)(F)F)cc(C(F)(F)F)c2)n1)NNc1cnccn1 + CC(CO)NC(=O)c1cc(-c2ccc(Cl)cc2)nn(-c2cnn(C)c2)c1=O , thank you.
False

Dear all, I need the recorded test outcome for CCN(c1cc(-c2ccc(CN3CCOCC3)cc2)cc(C(=O)NCc2c(C)cc(C)[nH]c2=O)c1C)C1CCOCC1 + CC(CO)NC(=O)c1cc(-c2ccc(Cl)cc2)nn(-c2cnn(C)c2)c1=O , thank you.
False

Dear all, I need the recorded test outcome for CC(C)CC(NC(=O)C(Cc1ccccc1)NC(=O)c1cnccn1)B(O)O (stereo unspecified) + Cc1ccccc1N=Nc1ccc(NC(=O)c2ccnn2C)c(C)c1 , thank you.
False

Dear all, I need the recorded test outcome for CC(C)CC(NC(=O)C(Cc1ccccc1)NC(=O)c1cnccn1)B(O)O (stereo unspecified) + Cc1cncc(-c2nc(NCCc3c[nH]c4ccccc34)c3ncn(C(C)C)c3n2)c1 , thank you.
True

Now take the following molecule into account.
Dear all, I need the recorded test outcome for CCc1c2c(nc3ccc(O)cc13)-c1cc3c(c(=O)n1C2)COC(=O)[C@]3(O)CC + Cc1cncc(-c2nc(NCCc3c[nH]c4ccccc34)c3ncn(C(C)C)c3n2)c1 , thank you.
False

* * *

Measured viability, T/C, listed per entry.
test system: LG0703-F498-PDC complex spheroid growth; experiment: Anticancer human tumor LG0703-F498-PDC cell line growth inhibition [AhR]; settings: second compound 10 µM; first compound 3.16 µM; hits give low values;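 further: luminescence taken as a proxy for viable cell amount; percent of DMSO vehicle control where 100% means growth equal to vehicle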

Record for O=C(c1cc(Cc2n[nH]c(=O)c3ccccc23)ccc1F)N1CCN(C(=O)C2CC2)CC1 + Cc1cncc(-c2nc(NCCc3c[nH]c4ccccc34)c3ncn(C(C)C)c3n2)c1 under target or system LG0703-F498-PDC complex spheroid growth: viability, T/C reported as 0.66%

Record for Nc1ccccc1NC(=O)c1ccc(CNC(=O)OCc2cccnc2)cc1 + CC(CO)NC(=O)c1cc(-c2ccc(Cl)cc2)nn(-c2cnn(C)c2)c1=O under target or system LG0703-F498-PDC complex spheroid growth: viability, T/C reported as 3.12%

Record for COc1cc(Nc2ncc3c(n2)-c2ccc(Cl)cc2C(c2c(F)cccc2OC)=NC3)ccc1C(=O)O + CC(CO)NC(=O)c1cc(-c2ccc(Cl)cc2)nn(-c2cnn(C)c2)c1=O under target or system LG0703-F498-PDC complex spheroid growth: viability, T/C reported as 52.7%

Record for COc1cc(C2c3cc4c(cc3C(OC3OC5COC(C)OC5C(O)C3O)C3COC(=O)C23)OCO4)cc(OC)c1O (stereo unspecified) + Cc1ccccc1N=Nc1ccc(NC(=O)c2ccnn2C)c(C)c1 under target or system LG0703-F498-PDC complex spheroid growth: viability, T/C reported as 81.4%

Further cases:
Record for Nc1ccn(C2OC(CO)C(O)C2(F)F)c(=O)n1 (stereo unspecified) + CC(CO)NC(=O)c1cc(-c2ccc(Cl)cc2)nn(-c2cnn(C)c2)c1=O under target or system LG0703-F498-PDC complex spheroid growth: viability, T/C reported as 27.2%

Record for COc1cc(C2c3cc4c(cc3C(OC3OC5COC(C)OC5C(O)C3O)C3COC(=O)C23)OCO4)cc(OC)c1O (stereo unspecified) + CC(CO)NC(=O)c1cc(-c2ccc(Cl)cc2)nn(-c2cnn(C)c2)c1=O under target or system LG0703-F498-PDC complex spheroid growth: viability, T/C reported as 73%
